The reported numbers originate from ChEMBL document CHEMBL1123958.

System: Human alphaherpesvirus 2
assayExplanation: Concentration required to reduce HSV-2 virus induced cytopathogenicity in rabbit cell kidney culture (196 cells)
Type: functional, organism-based
valueKind: Concentration (µg/mL)
Unit µg/mL implied. Number only.

Past entries and their recorded results:
{"compound": "CC(=O)OC[C@H]1O[C@@H](n2cc(/C=C/Br)c(-n3cncn3)nc2=O)C[C@@H]1OC(C)=O", "Concentration [µg/mL]": 20}
{"compound": "O=c1[nH]c(=O)n([C@H]2C[C@H](O)[C@@H](CO)O2)cc1/C=C/Br", "Concentration [µg/mL]": 30}

Continue with the next molecule.
Please provide the recorded Concentration for "Cc1cn([C@H]2C[C@H](O)[C@@H](CO)O2)c(=O)nc1-n1cncn1" , tested on Human alphaherpesvirus 2. 20

====

System: Human alphaherpesvirus 2
assayExplanation: Concentration required to reduce HSV-2 virus induced cytopathogenicity in rabbit cell kidney culture (196 cells)
Type: functional, organism-based
valueKind: Concentration

Past entries and their recorded results:
{"compound": "CC(=O)OC[C@H]1O[C@@H](n2cc(C)c(-n3cncn3)nc2=O)C[C@@H]1OC(C)=O", "Concentration": "> 40 µg/mL"}
{"compound": "CC(=O)OC[C@H]1O[C@@H](n2cc(/C=C/Br)c(=O)[nH]c2=O)C[C@@H]1OC(C)=O", "Concentration": "100 µg/mL"}
{"compound": "Cc1cn(C2CC(O)C(CCl)O2)c(=O)nc1-n1cncn1 (centres undefined)", "Concentration": "> 10 µg/mL"}

Continue with the next compound.
Form field: reported Concentration of "Nc1nc(=O)n([C@H]2C[C@H](O)[C@@H](CO)O2)cc1/C=C/Br" > 400 µg/mL
